# studyTarget: holo-CapF (reconstituted with Zn^2+) (Staphylococcus aureus)
# assay: ITC binding to CapF reconstituted with Zn2+ (holo-CapF)
# reportedConditions: ITC, 25 °C; read-out: KD
parameter: Kd (µM)
Give the value, in units of µM, as a plain number.

compound CC(C)c1cccc(=O)c(O)c1 [4-isopropyl-tropolone] , Kd observed: 1800

====

# studyTarget: holo-CapF (reconstituted with Zn^2+) (Staphylococcus aureus, UniProt A0A0H3JP37)
# Sequence (A0A0H3JP37 entry or part of it): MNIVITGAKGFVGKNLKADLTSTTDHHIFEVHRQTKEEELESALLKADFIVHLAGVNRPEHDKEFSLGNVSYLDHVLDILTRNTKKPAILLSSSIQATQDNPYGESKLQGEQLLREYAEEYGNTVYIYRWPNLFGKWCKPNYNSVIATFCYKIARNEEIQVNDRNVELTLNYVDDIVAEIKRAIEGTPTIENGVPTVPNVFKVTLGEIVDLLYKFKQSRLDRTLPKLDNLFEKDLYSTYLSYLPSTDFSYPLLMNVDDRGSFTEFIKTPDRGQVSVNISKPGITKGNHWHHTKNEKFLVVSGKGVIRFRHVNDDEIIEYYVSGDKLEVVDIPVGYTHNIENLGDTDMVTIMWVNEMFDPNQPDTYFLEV
# assay: ITC binding to CapF reconstituted with Zn2+ (holo-CapF)
# reportedConditions: ITC, 25 °C, 10 mM HEPES pH 7.4, 150 mM NaCl, 5% DMSO, one-site model; read-out: KD
parameter: pKd
API: returns pKd as number; meaning -log10 of concentration in mol/L.

Record for CC(C)c1cccc(=O)c(O)c1 [4-isopropyl-tropolone] under target or system holo-CapF (reconstituted with Zn^2+) (Staphylococcus aureus, UniProt A0A0H3JP37): pKd reported as 2.74
